Test system: MS2 coat protein
Experiment: apparent KD of MS2 coat protein; designed switch direction (-1 OFF switch, 1 ON switch): -1; higher = weaker reporter binding
Conditions: Eterna round: R95; input ligand: none
Use rule met when the recorded apparent KD of MS2 coat protein is no lower than 0.05 µM; use rule not met when it is lower.

query.sequence	group.label
CCGCAAAUGCAGGAUAUCGUAUCGGAUACGAUACGAGAAGGGCGAACAUGAGGAUCACCCAUGUGUCCUAGCGG [Fiskers Ex 6 - 40] (puzzle: Exclusion 6)	rule met
AAGAAGCGAGGAUAUGCAAAAGAAAAGAAGAAGAAGAAAGAACAUGAGGAUCACCCAUGUAGAAGGCGCAAGAA [Mine, too!] (puzzle: Exclusion 2)	rule not met
GAGGGACAUGAGGAUCACCCAUGUGAGGAUAUGUGAGAAGGAUUGGAGAGAAUAAGAAACAGAAGGCGCUGUAG [JR_Exclu1_Sub088] (puzzle: Exclusion 1)	rule met
GCGAAAGCAAGCAAGUGAAACAUGAGGAUCACCCAUGUCCUCAUUUGCUCGUCUUAUAAGCUAUGCGAAAGCAUAGC [Sensor 3, v1 - 2] (puzzle: Sensor v3, turn-off variant 1)	rule not met
GGUCUGCGAGGAUAUACAUGAGGAUCACCCAUGUGCGAGAAACUAGUGAGGUCGAUUGGUAGAAGGCGCGGACG [Mat - Exclusion 3 - Mod of JL D83] (puzzle: Exclusion 3)	rule met
AUUUAGAGAGGAUAUAUAUUGUGAAACAUGAGGAUCACCCAUGUAAUAAUAUGGAUAUAAAUAGAAGGCUCAUUUU [Mat - Exclusion 5 - JL mod - D11] (puzzle: Exclusion 5)	rule not met
GAAUGCAAGUAAAGAUCUUACAUGAGGAUCACCCAUGUGCUCGUCUUAUAAAGUACUAUCACGAAAGUGAUAGUACA [Mat - Sensor v3 - turn-off var 1 - Eli Mod - D90] (puzzle: Sensor v3, turn-off variant 1)	rule not met
GUGGUGACAGGAUAUACAUGAGGAUCACCCAUGUGAGGAGGACGAGACAGGUGAAGGAGUAGAAGGGUCAGAGG [JR_Exclu3_Sub027] (puzzle: Exclusion 3)	rule met
GAUGUGGGUUUCCGGAGGAACAUGAGGAUCACCCAUGUAGAAGUUGGAGGGAUAACGCUUUUUGCUCGUUACACGUG [JR_SV3TOV1_Sub055] (puzzle: Sensor v3, turn-off variant 1)	rule met
GGUUGGCGAGGAUAUACAUGAGGAUCACCCAUGUGAGAGGAAAAAGUGAGGAAGAAAAGUAGAAGGCGCUGACG [salish99_ex3_r3_002] (puzzle: Exclusion 3)	rule met

Would you say GAAAAGGUAGGAUAUACGAAAAAAAAGGGUAGUAAAAAAACACAUGAGGAUCACCCAUGUAGAAGGACCAAAAG [salish99_ex2_r3_079] (puzzle: Exclusion 2) shows apparent KD of MS2 coat protein at minimum 0.05 µM?
rule not met

Would you say AAGAAACAUGAGGAUCACCCAUGUGAGGAUAUGACUAAGAAAAGAAAAGAAAGAAGAUUCAGAAGGCACAAAGG [salish99-ex1_r3_062] (puzzle: Exclusion 1) shows apparent KD of MS2 coat protein at minimum 0.05 µM?
rule not met

Would you say AGUAGAUCUACGCUUGCGUGGAUCUGCAAGGCAGGUGUUACAUGAGGAUCACCCAUGUCCUCAUUUGCUCGUCUUAG [JL turnoff v2 99.07] (puzzle: Sensor v3, turn-off variant 2) shows apparent KD of MS2 coat protein at minimum 0.05 µM?
rule met

Would you say GCCCAGCUAGGAUAUCGCACUGCAGACAUGAGGAUCACCCAUGUGAUGAGGUCUGAAUUCCGAGAAGGAGCAUGGA [Isedzaqu] (puzzle: Exclusion 5) shows apparent KD of MS2 coat protein at minimum 0.05 µM?
rule not met

Would you say GUGAGAUAGUUAGUGGCCGACAUGAGGAUCACCCAUGUGAGGGAAAUGUUGAGGCGAAAGCUUUUUGCUCGUCUUUA [JR_SV3TOV1_Sub037] (puzzle: Sensor v3, turn-off variant 1) shows apparent KD of MS2 coat protein at minimum 0.05 µM?
rule not met

Would you say AGAAAUGCCCAUGGCCGCAAGCUUUUCGCUUGUCUUACCACAUGAGGAUCACCCAUGUGACAUGGGCUCCUUAUAAU [Usdigeor] (puzzle: Sensor v3, turn-off variant 2) shows apparent KD of MS2 coat protein at minimum 0.05 µM?
rule not met

Would you say CUGGUCCGAGGAUAUAUUAUGUGAAACAUGAGGAUCACCCAUGUAAUAUGAUGGAUGUAAAUAGAAGGCGGGCUAG [Mat - Exclusion 5 - JL mod - D26] (puzzle: Exclusion 5) shows apparent KD of MS2 coat protein at minimum 0.05 µM?
rule not met

Would you say GAUUAUGCGAGCUUUAGGGACAUGAGGAUCACCCAUGUUCGUCUUAUUGAUCUGGAUGCACUGACAUACCUAAAUCU [JMF 80] (puzzle: Sensor v3, turn-off variant 1) shows apparent KD of MS2 coat protein at minimum 0.05 µM?
rule not met

Would you say CAUGGAACGUAGGAUAUCUCACAGCCAGGCUGCAGAGAAGGACGUACAUGAGGAUCACCCAUGUAUGAUCCAAA [Tius] (puzzle: Exclusion 6) shows apparent KD of MS2 coat protein at minimum 0.05 µM?
rule not met

Would you say GGUGAGCGAGGAUAUACAUGAGGAUCACCCAUGUGAGAGAAAUAAGUGAGGAAGAAAAGUAGAAGGCGCGAACG [Mat - Exclusion 3 - Mod of Salish D46] (puzzle: Exclusion 3) shows apparent KD of MS2 coat protein at minimum 0.05 µM?
rule not met
